# Tested on: Plasmodium berghei
# protocol_notes: Screen against P. berghei liver stage (PbLuc), transformed with Luciferase, at 10uM
# Type: functional, HepG2
# condition: tested at 10 uM
Hit rate of the full screen: of about 69,000 compounds, about 8,600 (12%) showed an effect of 50% or more. Only a selection was taken, and strong results are over-represented in it overall.
// NB: equality with 30% counts as NO; only INHIBITION strictly below is YES

[[record]]
compound = "Cc1cc(C)n(-c2ccc(CNCc3ccc(C)o3)cn2)n1"
answer_label = "NO"

[[record]]
compound = "CCCc1nc(C(C)(C)NC(=O)c2ccnn2C)no1"
answer_label = "NO"

[[record]]
compound = "CCC1c2cccn2CCN1S(=O)(=O)N1CCOCC1 (stereo not given)"
answer_label = "NO"

[[record]]
compound = "Cc1ncsc1CN1C[C@@H]2COC[C@]2(C(=O)NCC2CC2)C1"
answer_label = "NO"

[[record]]
compound = "CN(Cc1ccsc1)C(=O)CNC(=O)N1CCc2ccccc2C1"
answer_label = "NO"

[[record]]
compound = "COc1ccccc1OCCCN1C(=O)CCNC1=O"
answer_label = "YES"

[[record]]
compound = "Cc1ccc(S(=O)(=O)N2CCCC3(CCCN3S(C)(=O)=O)C2)cc1F (stereo not given)"
answer_label = "YES"

[[record]]
compound = "CC(NC(=O)c1ccc(C#N)cn1)C1(N2CCOCC2)CCCC1 (stereo not given)"
answer_label = "NO"

[[record]]
compound = "CN(Cc1ccccn1)C(=O)CNC(=O)N1CCc2ccccc2C1"
answer_label = "YES"

[[record]]
compound = "Cc1ccc(CN(C)C(=O)CNC(=O)N2CCc3ccccc3C2)o1"
answer_label = "YES"


Ask: In the record for CN(C)C(=O)N1C[C@H]2CC[C@@H](C1)N(Cc1ccc3nsnc3c1)C2 , is INHIBITION less than 30%?
Reply: YES

Ask: And then Cn1cccc1C(=O)N1CC[C@@]2(O)CCN(S(C)(=O)=O)C[C@H]2C1 , what is it?
Reply: NO

Ask: And then COc1ccc(OCCNC(=O)CN(C)Cc2nnc(C)n2C)cc1 , what is it?
Reply: YES

Ask: And then Cc1ccc(Cl)c(NC(=O)NC2(C)CCOC2)c1 (stereo not given) , what is it?
Reply: YES

Ask: And then CCOCCCNc1cc(C)nn2cnnc12 , what is it?
Reply: YES

###

Parameter INHIBITION: see the listing below.
# Tested on: Plasmodium berghei
# protocol_notes: Screen against P. berghei liver stage (PbLuc), transformed with Luciferase, at 10uM
# Format: functional, HepG2
# condition: tested at 10 uM
In all, about 69,000 compounds went through this assay and about 8,600 (12%) showed an effect of 50% or more. The sample holds strong results, similar compounds and a random draw of the others, so the mix is not that of the screen.
Give the value in % but do not write % after it.

[[record]]
compound = "O=C(NC1CCN(C2CC2)CC1)N1CCN(c2cnccn2)CC1"
unit_of_measurement = "%"
measured_number = 37.9


Ask: Reported INHIBITION for CCC(C)Oc1ccc(CNCCc2c[nH]cn2)cc1Cl (stereo not drawn) : what is it?
Reply: 66.8

Ask: And then N#Cc1cccnc1N1CCC(C2CCCCCN2C(=O)C2CC2)CC1 (stereo not drawn) , what is it?
Reply: -1.3
